MEASUREMENT DESCRIPTION: Cmax in rat at 3 mg/kg, po
Type: ADME, organism-based
Set-up: dose 3 mg/kg, route oral
SETTINGS: in vivo
MEASURED ENDPOINT: Cmax (ng/mL)
Numbers only, in ng/mL.

Looking up `C=C1c2c(-c3ccc(Oc4ccccc4)cc3)c3c(N)ncnc3n2C[C@H]1NC(=O)C#CC` , I found its Cmax recorded as 340

Continuing:
Looking up `C=CC(=O)N[C@@H]1Cn2c(c(-c3ccc(Oc4ccccc4)cc3)c3c(N)ncnc32)C1=C` , I found its Cmax recorded as 223

---

MEASUREMENT TARGET: UniProtKB P42680
Sequence (P42680 whole entry): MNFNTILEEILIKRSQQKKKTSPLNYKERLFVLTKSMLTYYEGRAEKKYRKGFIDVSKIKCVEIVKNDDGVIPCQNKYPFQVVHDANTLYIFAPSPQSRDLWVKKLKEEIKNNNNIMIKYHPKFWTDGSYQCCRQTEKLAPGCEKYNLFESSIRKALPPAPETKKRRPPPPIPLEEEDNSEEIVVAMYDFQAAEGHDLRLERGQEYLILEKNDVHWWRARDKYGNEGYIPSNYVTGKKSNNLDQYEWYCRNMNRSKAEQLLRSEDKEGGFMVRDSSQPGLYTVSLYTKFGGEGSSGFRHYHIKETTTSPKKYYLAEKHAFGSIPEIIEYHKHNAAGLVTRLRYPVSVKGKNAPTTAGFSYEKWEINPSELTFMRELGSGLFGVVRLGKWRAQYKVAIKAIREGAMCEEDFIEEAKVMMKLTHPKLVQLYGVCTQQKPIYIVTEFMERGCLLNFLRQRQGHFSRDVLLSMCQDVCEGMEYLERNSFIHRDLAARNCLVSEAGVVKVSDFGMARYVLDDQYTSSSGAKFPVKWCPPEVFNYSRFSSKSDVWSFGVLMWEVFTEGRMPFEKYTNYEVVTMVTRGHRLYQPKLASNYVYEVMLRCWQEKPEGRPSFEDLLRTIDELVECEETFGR
MEASUREMENT DESCRIPTION: Inhibition of recombinant human TEC using Poly(Glu, Tyr) 4:1 as substrate after 1 hr by ELISA
MEASURED ENDPOINT: pIC50
Answers are plain numbers, as −log10 of the molar value.

Looking up `C=CC(=O)N[C@@H]1Cn2c(c(-c3ccc(Oc4ccccc4)cc3)c3c(N)ncnc32)C1=C` , I found its pIC50 recorded as 8.85

---

MEASUREMENT DESCRIPTION: Tmax in rat at 3 mg/kg, po
Format: ADME, organism-based
SETTINGS: in vivo
Field: Tmax. Provide a value for each of the molecules that follow.
One number for each entry, in min.

Looking up `C=CC(=O)N[C@@H]1Cn2c(c(-c3ccc(Oc4ccccc4)cc3)c3c(N)ncnc32)C1=C` , I found its Tmax recorded as 15

Let us examine a further case.
Looking up `C=C1c2c(-c3ccc(Oc4ccccc4)cc3)c3c(N)ncnc3n2C[C@H]1NC(=O)C#CC` , I found its Tmax recorded as 15

---

MEASUREMENT TARGET: Tyrosine-protein kinase ITK/TSK (Homo sapiens, UniProt Q08881)
Sequence (Q08881 whole entry): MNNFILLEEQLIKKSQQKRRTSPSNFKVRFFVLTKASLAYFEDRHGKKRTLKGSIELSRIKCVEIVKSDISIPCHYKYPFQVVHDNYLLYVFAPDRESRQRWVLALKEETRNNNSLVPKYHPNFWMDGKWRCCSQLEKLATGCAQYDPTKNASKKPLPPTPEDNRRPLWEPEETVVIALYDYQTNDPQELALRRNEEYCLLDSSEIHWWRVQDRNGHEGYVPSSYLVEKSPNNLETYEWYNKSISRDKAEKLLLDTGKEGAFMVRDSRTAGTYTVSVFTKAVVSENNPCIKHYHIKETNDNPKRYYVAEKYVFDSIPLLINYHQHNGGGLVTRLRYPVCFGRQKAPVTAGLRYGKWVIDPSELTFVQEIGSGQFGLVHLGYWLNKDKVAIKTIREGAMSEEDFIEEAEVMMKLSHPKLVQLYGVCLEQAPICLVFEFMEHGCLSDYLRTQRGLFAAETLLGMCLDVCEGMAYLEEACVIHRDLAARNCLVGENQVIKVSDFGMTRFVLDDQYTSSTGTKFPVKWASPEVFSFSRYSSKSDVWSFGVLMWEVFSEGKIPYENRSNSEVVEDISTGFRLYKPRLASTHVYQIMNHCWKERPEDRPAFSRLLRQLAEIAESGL
MEASUREMENT DESCRIPTION: Inhibition of recombinant human ITK using Poly(Glu, Tyr) 4:1 as substrate after 1 hr by ELISA
MEASURED ENDPOINT: pIC50
Numbers only, as −log10 of the molar value.

Looking up `C=CC(=O)N[C@@H]1Cn2c(c(-c3ccc(Oc4ccccc4)cc3)c3c(N)ncnc32)C1=C` , I found its pIC50 recorded as 7.82

---

MEASUREMENT TARGET: Tyrosine-protein kinase BTK (Homo sapiens, UniProt Q06187)
Sequence (Q06187 whole entry): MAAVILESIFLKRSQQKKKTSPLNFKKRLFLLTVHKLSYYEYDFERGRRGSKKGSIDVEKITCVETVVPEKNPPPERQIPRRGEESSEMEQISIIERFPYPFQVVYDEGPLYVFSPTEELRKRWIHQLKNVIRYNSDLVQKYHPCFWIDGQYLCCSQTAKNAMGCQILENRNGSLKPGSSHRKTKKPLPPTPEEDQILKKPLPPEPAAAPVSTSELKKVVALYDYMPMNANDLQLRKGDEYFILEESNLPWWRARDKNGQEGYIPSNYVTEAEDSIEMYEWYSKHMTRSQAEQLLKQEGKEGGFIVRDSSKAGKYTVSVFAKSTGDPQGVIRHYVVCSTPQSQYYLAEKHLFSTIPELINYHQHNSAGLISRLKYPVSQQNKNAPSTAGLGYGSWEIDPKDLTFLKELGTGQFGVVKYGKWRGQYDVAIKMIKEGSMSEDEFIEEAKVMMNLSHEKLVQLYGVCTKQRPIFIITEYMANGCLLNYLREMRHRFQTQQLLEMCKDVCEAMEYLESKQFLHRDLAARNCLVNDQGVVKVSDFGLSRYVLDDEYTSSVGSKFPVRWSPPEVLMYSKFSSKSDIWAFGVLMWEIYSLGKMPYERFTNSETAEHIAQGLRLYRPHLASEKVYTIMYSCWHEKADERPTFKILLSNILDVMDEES
MEASUREMENT DESCRIPTION: Inhibition of BTK autophosphorylation at Y223 in human TMD8 cells after 4 hrs by Western blot method
MEASURED ENDPOINT: IC50

Value (IC50, Tyrosine-protein kinase BTK (Homo sapiens, UniProt Q06187)) for record `C=CC(=O)N[C@@H]1Cn2c(c(-c3ccc(Oc4ccccc4)cc3)c3c(N)ncnc32)C1=C` = < 10 nM

---

MEASUREMENT TARGET: Tyrosine-protein kinase BTK (Homo sapiens)
MEASUREMENT DESCRIPTION: Inhibition of recombinant human BTK using Poly(Glu, Tyr) 4:1 as substrate after 1 hr by ELISA
MEASURED ENDPOINT: pIC50
One number for each entry, as −log10 of the molar value.

Before answering, review these 10 worked examples.
Looking up `C=CC(=O)N[C@@H]1Cn2c(c(-c3ccc(Oc4ccc(C(C)(C)C)cc4)cc3)c3c(N)ncnc32)C1=C` , I found its pIC50 recorded as 8.43

Looking up C=CC(=O)NC1(C(=O)NC2Cn3c(c(-c4ccc(Oc5ccccc5)cc4)c4c(N)ncnc43)C2=C)CC1 (stereo not drawn) , I found its pIC50 recorded as 7.62

Looking up C=C1c2c(-c3ccc(Oc4ccccc4)cc3)c3c(N)ncnc3n2CC1NC(=O)CC (stereo not drawn) , I found its pIC50 recorded as 7.20

Looking up `C=CC(=O)N[C@@H]1Cn2c(c(-c3ccc(Oc4ccc(OC(F)(F)F)cc4)cc3)c3c(N)ncnc32)C1=C` , I found its pIC50 recorded as 8.46

Looking up CCC(=O)NC1CCc2c(-c3ccc(Oc4ccccc4)cc3)c3c(N)ncnc3n2C1 (stereo not drawn) , I found its pIC50 recorded as 6.38

Looking up C=CC(=O)NC1Cn2c(c(-c3ccc(Oc4ccccc4)cc3)c3c(N)ncnc32)C1=C (racemic) , I found its pIC50 recorded as 8.55

Looking up `C=CC(=O)N[C@@H]1Cn2c(c(-c3ccc(C(=O)NCc4ccccn4)cc3)c3c(N)ncnc32)C1=C` , I found its pIC50 recorded as 8.51

Looking up C=CC(=O)NCC(=O)NC1Cn2c(c(-c3ccc(Oc4ccccc4)cc3)c3c(N)ncnc32)C1=C (stereo not drawn) , I found its pIC50 recorded as 7.63

Looking up C=C1c2c(-c3ccc(Oc4ccccc4)cc3)c3c(N)ncnc3n2CC1NC(=O)/C=C/CN(C)C (stereo not drawn) , I found its pIC50 recorded as 8.37

Looking up `C=CC(=O)N[C@@H]1Cn2c(c(-c3ccc(Oc4ccc(F)cc4)cc3)c3c(N)ncnc32)C1=C` , I found its pIC50 recorded as 8.66

Answer for every listed entry: what is its pIC50? The entries follow.
1. C=CC(=O)NCCC(=O)NC1Cn2c(c(-c3ccc(Oc4ccccc4)cc3)c3c(N)ncnc32)C1=C (stereo not drawn)
2. C=CC(=O)N[C@@H]1Cn2c(c(-c3ccc(C(=O)N[C@@H](COC)c4ccccn4)cc3)c3c(N)ncnc32)C1=C

-- reply
1: 6.14; 2: 8.37

Answer for every listed entry: what is its pIC50? The entries follow.
1. C=CC(=O)N[C@H]1Cn2c(c(-c3ccc(Oc4ccccc4)cc3)c3c(N)ncnc32)C1=C
2. C=CC(=O)N[C@@H]1Cn2c(c(-c3ccc(Oc4ccc(C(F)(F)F)cc4)cc3)c3c(N)ncnc32)C1=C
3. C=C1c2c(-c3ccc(Oc4ccccc4)cc3)c3c(N)ncnc3n2C[C@H]1NC(=O)C#CC
4. C=CC(=O)N[C@@H]1Cn2c(c(-c3ccc(C(=O)N[C@@H](C)c4ccccn4)cc3)c3c(N)ncnc32)C1=C
5. C=C1c2c(-c3ccc(Oc4ccccc4)cc3)c3c(N)ncnc3n2CC1NC(=O)C#CC (racemic)
6. C=CC(=O)N[C@@H]1Cn2c(c(-c3ccc(Oc4ccccc4)cc3)c3c(N)ncnc32)C1=C
7. C=CC(=O)N[C@@H](C)C(=O)NC1Cn2c(c(-c3ccc(Oc4ccccc4)cc3)c3c(N)ncnc32)C1=C (stereo partly drawn)
8. C=CC(=O)N[C@@H]1Cn2c(c(-c3ccc(C(=O)Nc4ccccn4)cc3)c3c(N)ncnc32)C1=C

-- reply
8.21
8.13
9.40
7.30
8.68
9.40
7.40
9.30

Answer for every listed entry: what is its pIC50? The entries follow.
1. C=CC(=O)N[C@@H]1Cn2c(c(-c3ccc(C(=O)Nc4cc(C(F)(F)F)ccn4)cc3)c3c(N)ncnc32)C1=C
2. C=C1c2c(-c3ccc(Oc4ccccc4)cc3)c3c(N)ncnc3n2C[C@@H]1NC(=O)C#CC

-- reply
1: 9.10; 2: 8.48
